Measured melting point by item
MEASURE_NAME: melting point

1. CC1(C)c2[nH]c3ccc(F)cc3c2C[C@@]2(C)C1CC[C@]1(C)C2C(=O)C=C2C3C[C@@](C)(C(=O)O)CC[C@]3(C)CC[C@]21C (stereo partly shown) [Compound 4d] = 245 to 248 °C
2. CC1(C)c2[nH]c3ccccc3c2C[C@@]2(C)C1CC[C@]1(C)C2C(=O)C=C2C3C[C@@](C)(C(=O)O)CC[C@]3(C)CC[C@]21C (stereo partly shown) [Compound 4a] = 245 to 248 °C
3. CC1(C)c2c(cnn2-c2ccc(F)cc2)C[C@@]2(C)C1CC[C@]1(C)C2C(=O)C=C2C3C[C@@](C)(C(=O)O)CC[C@]3(C)CC[C@]21C (stereo partly shown) [Compound 5d] = 260 to 264 °C
4. COc1ccc(-n2ncc3c2C(C)(C)C2CC[C@]4(C)C(C(=O)C=C5C6C[C@@](C)(C(=O)O)CC[C@]6(C)CC[C@]54C)[C@@]2(C)C3)cc1 (stereo partly shown) [Compound 5b] = 208 to 211 °C

---

Molecular target: PTP1B (Homo sapiens)
Test: PTP1B inhibitory assay (pNPP, spectrocolorimetric)
Format: biochemical
Conditions: pNPP substrate; three independent determinations
MEASURE_NAME: IC50 (µM)

1. CC(C)CCC[C@@H](C)[C@H]1CC[C@H]2[C@@H]3C[C@@H](NCCCNCCCCNCCCN)[C@H]4C[C@@H](O)CC[C@]4(C)[C@H]3CC[C@]12C = 13.7
2. CC1(C)[C@@H](OC(=O)CCC(=O)O)CC[C@]2(C)[C@H]3C(=O)C=C4[C@@H]5C[C@@](C)(C(=O)O)CC[C@]5(C)CC[C@@]4(C)[C@]3(C)CC[C@@H]12 [CA, carbenoxolone, reference compound] = 69.7
3. CC1(C)c2[nH]c3ccccc3c2C[C@@]2(C)C1CC[C@]1(C)C2C(=O)C=C2C3C[C@@](C)(C(=O)O)CC[C@]3(C)CC[C@]21C (stereo partly drawn) = 6.6
4. COc1ccc(-n2ncc3c2C(C)(C)C2CC[C@]4(C)C(C(=O)C=C5C6C[C@@](C)(C(=O)O)CC[C@]6(C)CC[C@]54C)[C@@]2(C)C3)cc1 (stereo partly drawn) = 4.8
5. CC1(C)c2c(cnn2-c2ccc(F)cc2)C[C@@]2(C)C1CC[C@]1(C)C2C(=O)C=C2C3C[C@@](C)(C(=O)O)CC[C@]3(C)CC[C@]21C (stereo partly drawn) = 9.6
6. CC1(C)c2c(cnn2-c2ccccc2)C[C@@]2(C)C1CC[C@]1(C)C2C(=O)C=C2C3C[C@@](C)(C(=O)O)CC[C@]3(C)CC[C@]21C (stereo partly drawn) = 5.1

---

Target: PTP1B (Homo sapiens)
pKi: −log10 of the molar value.
MEASURE_NAME: pKi

1. CC(C)CCC[C@@H](C)[C@H]1CC[C@H]2[C@@H]3C[C@@H](NCCCNCCCCNCCCN)[C@H]4C[C@@H](O)CC[C@]4(C)[C@H]3CC[C@]12C = 4.81

---

Measured IC50 by item
Target: PTP1B (Homo sapiens, UniProt P18031)
Sequence (P18031 whole entry): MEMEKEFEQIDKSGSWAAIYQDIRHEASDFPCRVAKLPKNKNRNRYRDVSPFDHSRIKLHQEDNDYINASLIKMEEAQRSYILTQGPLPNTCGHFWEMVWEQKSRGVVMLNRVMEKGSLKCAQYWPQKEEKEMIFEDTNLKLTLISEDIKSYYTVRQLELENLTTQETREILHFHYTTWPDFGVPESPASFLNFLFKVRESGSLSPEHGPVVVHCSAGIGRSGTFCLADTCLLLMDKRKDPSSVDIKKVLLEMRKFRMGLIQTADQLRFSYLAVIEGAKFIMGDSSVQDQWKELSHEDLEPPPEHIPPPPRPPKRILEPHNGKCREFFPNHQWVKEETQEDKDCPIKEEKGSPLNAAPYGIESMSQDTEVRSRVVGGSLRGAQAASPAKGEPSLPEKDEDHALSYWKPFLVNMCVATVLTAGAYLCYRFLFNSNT
Assay: PTP1B inhibitory assay (pNPP, spectrocolorimetric)
Format: biochemical
Conditions: pNPP substrate; three independent determinations
MEASURE_NAME: IC50 (µM)

1) CC1(C)c2[nH]c3ccc(Cl)cc3c2C[C@@]2(C)C1CC[C@]1(C)C2C(=O)C=C2C3C[C@@](C)(C(=O)O)CC[C@]3(C)CC[C@]21C (some centres unmarked) = 10.1
2) Cc1ccc(-n2ncc3c2C(C)(C)C2CC[C@]4(C)C(C(=O)C=C5C6C[C@@](C)(C(=O)O)CC[C@]6(C)CC[C@]54C)[C@@]2(C)C3)cc1 (some centres unmarked) = 4.8
3) CC1(C)c2[nH]c3ccc(F)cc3c2C[C@@]2(C)C1CC[C@]1(C)C2C(=O)C=C2C3C[C@@](C)(C(=O)O)CC[C@]3(C)CC[C@]21C (some centres unmarked) = 5.2
4) CC1(C(=O)O)CCC2(C)CCC3(C)C(=CC(=O)C4C5(C)Cc6c([nH]c7ccc(C(F)(F)F)cc67)C(C)(C)C5CCC43C)C2C1 (centres unmarked) = 2.5
5) CC1(C(=O)O)CCC2(C)CCC3(C)C(=CC(=O)C4C5(C)Cc6cnn(-c7ccc(C(F)(F)F)cc7)c6C(C)(C)C5CCC43C)C2C1 (centres unmarked) = 4.4
6) Cc1ccc2[nH]c3c(c2c1)C[C@@]1(C)C(CC[C@]2(C)C1C(=O)C=C1C4C[C@@](C)(C(=O)O)CC[C@]4(C)CC[C@]12C)C3(C)C (some centres unmarked) = 8.3
7) COc1ccc2[nH]c3c(c2c1)C[C@@]1(C)C(CC[C@]2(C)C1C(=O)C=C1C4C[C@@](C)(C(=O)O)CC[C@]4(C)CC[C@]12C)C3(C)C (some centres unmarked) = 4.3
8) CC1(C)c2c(cnn2-c2ccc(Cl)cc2)C[C@@]2(C)C1CC[C@]1(C)C2C(=O)C=C2C3C[C@@](C)(C(=O)O)CC[C@]3(C)CC[C@]21C (some centres unmarked) = 7.5
